molecular target: STS (Homo sapiens); construct: expressed in transfected cells; host or cells: HEK-293 cells stably transfected with STS (G418 selection), obtained from Dr. Van Luu-The; used as freeze-thaw homogenate; assay: STS inhibition of libraries 1-EO to 4-EO, homogenate of STS transfected HEK-293 cells; format: biochemical; details: 1 μM; mean ± SEM, triplicate
Sequence (P08842 22-583): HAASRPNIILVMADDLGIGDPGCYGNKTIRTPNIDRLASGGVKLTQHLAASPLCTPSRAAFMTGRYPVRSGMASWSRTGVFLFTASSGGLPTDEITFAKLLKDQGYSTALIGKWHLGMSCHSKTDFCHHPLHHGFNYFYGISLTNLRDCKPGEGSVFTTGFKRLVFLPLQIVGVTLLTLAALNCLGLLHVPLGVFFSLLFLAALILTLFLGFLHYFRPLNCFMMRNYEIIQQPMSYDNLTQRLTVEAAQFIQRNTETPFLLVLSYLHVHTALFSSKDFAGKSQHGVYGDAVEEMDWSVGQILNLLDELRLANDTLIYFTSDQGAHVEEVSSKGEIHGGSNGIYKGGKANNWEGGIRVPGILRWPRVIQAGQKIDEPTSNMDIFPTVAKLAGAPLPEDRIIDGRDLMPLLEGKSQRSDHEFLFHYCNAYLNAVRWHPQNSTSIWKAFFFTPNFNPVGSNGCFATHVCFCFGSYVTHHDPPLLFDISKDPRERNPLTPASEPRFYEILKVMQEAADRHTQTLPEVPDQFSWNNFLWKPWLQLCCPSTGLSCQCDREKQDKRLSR
Label class 0 if STS inhibition (%) falls below 60%; label class 1 in every other case.

A selection of reference data follows.
1) CCN(Cc1ccc(C(=O)N2CCc3ccc(OS(N)(=O)=O)cc3C2)cc1)Cc1ccccn1 [3-EO-14]; class 1
2) CCN(Cc1ccc(C(=O)N2CCc3ccc(OS(N)(=O)=O)cc3C2)cc1)Cc1cccc(Br)c1 [3-EO-12]; class 1
3) CCN(Cc1ccc(F)cc1)Cc1ccc(C(=O)N2CCc3ccc(OS(N)(=O)=O)cc3C2)cc1 [3-EO-17]; class 1
4) NS(=O)(=O)Oc1ccc2c(c1)CN(C(=O)c1cccc(CN3CCN(Cc4ccccc4)CC3)c1)CC2 [2-EO-05]; class 0
5) NS(=O)(=O)Oc1ccc2c(c1)CN(C(=O)c1ccc(CN(CCCO)Cc3ccccc3)cc1)CC2 [3-EO-03]; class 1

Given the entry CCN(Cc1ccc(F)cc1)Cc1cccc(C(=O)N2CCc3ccc(OS(N)(=O)=O)cc3C2)c1 [4-EO-17] , answer whether its STS inhibition (%) meets or surpasses 60%. class 1

For this compound, is measured STS inhibition (%) 60% or higher? CN(C)CCCN(Cc1ccccc1)Cc1cccc(C(=O)N2CCc3ccc(OS(N)(=O)=O)cc3C2)c1 [4-EO-05] class 0

Hello, I need to know if NS(=O)(=O)Oc1ccc2c(c1)CN(C(=O)c1ccc(CN3CCc4ccccc4C3)cc1)CC2 [3-EO-10] has measured STS inhibition (%) not below 60%. Thanks! class 1
